System: U2OS
Assay: Multiplex assay against U2OS
Format: toxicity, cell-based
Settings: human, 12 h, 10 µM, compound concentration 10 uM, replicate 1
Please assign 0 (no) whenever Population Tubulin-Different-Phenotype (%) is at or above 4%, and 1 (yes) whenever it is below.

{"compound": "C[C@H](NC(=O)c1c(C(F)F)nn(C)c1Oc1cccc(C(F)(F)F)c1)c1ccc(C(=O)O)cc1 [PALUPIPRANT]", "system_tested": "U2OS", "discrete_label": "0 (no)"}
{"compound": "Oc1c(CN2CCN(c3ccccn3)CC2)cc(Cl)c2cccnc12", "system_tested": "U2OS", "discrete_label": "0 (no)"}
{"compound": "N#Cc1c(N)nc(SCc2csc(-c3ccc(Cl)cc3)n2)c(C#N)c1-c1ccc(OCCO)cc1 [CAPADENOSON]", "system_tested": "U2OS", "discrete_label": "0 (no)"}
{"compound": "CC1(COc2ccc3c(c2)ncn3-c2ccc3cccc(N4CCC(N)CC4)c3n2)COC1 [CRENOLANIB]", "system_tested": "U2OS", "discrete_label": "0 (no)"}
{"compound": "COc1cc(C(=O)N(CCCc2ccccc2)Cc2ccc(CC(=O)O)cc2)cc(OC)c1C", "system_tested": "U2OS", "discrete_label": "1 (yes)"}
{"compound": "CN1CCN(c2nc3cc(C(F)(F)F)ccc3n3cccc23)CC1.O=C(O)/C=C\\C(=O)O.O=C(O)/C=C\\C(=O)O", "system_tested": "U2OS", "discrete_label": "0 (no)"}
{"compound": "CN(C)CCCc1cc(C(=O)Nc2ccc(-c3ccncc3)cc2)ccc1O.Cl.Cl", "system_tested": "U2OS", "discrete_label": "1 (yes)"}
{"compound": "CCNC1(C(N)=O)CCN(c2ncnc3c2nc(-c2ccccc2Cl)n3-c2ccc(Cl)cc2)CC1 [OTENABANT]", "system_tested": "U2OS", "discrete_label": "0 (no)"}
{"compound": "CN1CCN2c3ncccc3Cc3ccccc3C2C1 (centres undefined) [MIRTAZAPINE]", "system_tested": "U2OS", "discrete_label": "0 (no)"}
{"compound": "COc1cc(NC(=O)CCN2CCC(OC(=O)Nc3ccccc3-c3ccccc3)CC2)c(Cl)cc1CNC[C@H](O)c1ccc(O)c2[nH]c(=O)ccc12 [BATEFENTEROL]", "system_tested": "U2OS", "discrete_label": "0 (no)"}
{"compound": "O=C(NCCO)c1cccc(-c2cc(Nc3ccc(OC(F)(F)F)cc3)ncn2)c1", "system_tested": "U2OS", "discrete_label": "0 (no)"}
{"compound": "CC(C)(C)c1ccc(S(=O)(=O)Nc2ccc(Cl)cc2C(=O)c2cc[n+]([O-])cc2)cc1 [VERCIRNON]", "system_tested": "U2OS", "discrete_label": "1 (yes)"}
{"compound": "CN(C)c1ccnc2sc3c(=O)n(N4CCCCCC4)cnc3c12", "system_tested": "U2OS", "discrete_label": "0 (no)"}
{"compound": "COc1ccc2c(c1)C(C(=O)N(Cc1ccc(N(C)C)cc1)c1ccc(C(C)C)cc1)CCC2.Cl (centres undefined)", "system_tested": "U2OS", "discrete_label": "0 (no)"}
{"compound": "CCOc1c2c(c(OCC)c3ncccc13)CN(c1ccc(CS(=O)(=O)NC(=O)Cc3ccccc3OC)cc1C)C2=O", "system_tested": "U2OS", "discrete_label": "1 (yes)"}
{"compound": "CCCn1c(=O)c2[nH]c(C3CCCC3)nc2n(CCC)c1=O", "system_tested": "U2OS", "discrete_label": "1 (yes)"}
{"compound": "Cl.Clc1ccc2nsnc2c1NC1=NCCN1 [TIZANIDINE HYDROCHLORIDE]", "system_tested": "U2OS", "discrete_label": "1 (yes)"}
{"compound": "Cc1nc2ccc(Oc3ccc(F)cc3)cc2c(=O)n1C[C@H]1CCCN(C(C)C)C1.Cl", "system_tested": "U2OS", "discrete_label": "0 (no)"}
{"compound": "C[C@H]1[C@H]2CC[C@H]3[C@@H]4CC=C5C[C@@H](N(C)C)CC[C@]5(C)[C@H]4CC[C@]23CN1C [CONESSINE]", "system_tested": "U2OS", "discrete_label": "1 (yes)"}
{"compound": "c1cc(OCCCN2CCCCC2)ccc1CN1CCCCC1 [JNJ-5207852]", "system_tested": "U2OS", "discrete_label": "1 (yes)"}
{"compound": "Cc1ccccc1C(=O)Nc1ccc(C(=O)N2CCCC(N(C)C)c3ccccc32)cc1.Cl (centres undefined)", "system_tested": "U2OS", "discrete_label": "0 (no)"}
{"compound": "Cc1ccc(C(C)(O)c2nc3ccccc3s2)c(C)c1 (centres undefined)", "system_tested": "U2OS", "discrete_label": "1 (yes)"}
{"compound": "N[C@@]1(C(=O)O)CO[C@H]2[C@H](C(=O)O)[C@H]21 [LY-379268]", "system_tested": "U2OS", "discrete_label": "1 (yes)"}
{"compound": "CC[C@H]1OC(=O)[C@H](C)[C@@H](O[C@H]2C[C@@](C)(OC)[C@@H](O)[C@H](C)O2)[C@H](C)[C@@H](O[C@@H]2O[C@H](C)C[C@H](N(C)C)[C@H]2O)[C@@]2(C)CC(C)=C(O2)[C@H](C)[C@@H](O)[C@]1(C)O", "system_tested": "U2OS", "discrete_label": "0 (no)"}
{"compound": "CSc1ccccc1N1CCN(CCCCCC(=O)NC2CCCc3ccccc32)CC1.Cl (centres undefined)", "system_tested": "U2OS", "discrete_label": "0 (no)"}
{"compound": "O=C(NCC(=O)N1CC[C@H](N[C@H]2CC[C@@](O)(c3ccc(-c4ncccn4)cn3)CC2)C1)c1cccc(C(F)(F)F)c1 [PF-4136309]", "system_tested": "U2OS", "discrete_label": "0 (no)"}
{"compound": "CCCN1CCC[C@@H]2Cc3n[nH]cc3C[C@H]21.Cl [QUINPIROLE HYDROCHLORIDE]", "system_tested": "U2OS", "discrete_label": "1 (yes)"}
{"compound": "O=S(=O)(c1ccccc1)c1cnc2c(N3CCNCC3)cccc2c1 [INTEPIRDINE]", "system_tested": "U2OS", "discrete_label": "0 (no)"}
{"compound": "O=C1COc2nccc(-c3ccccc3F)c2CN1Cc1cc(C(F)(F)F)cc(C(F)(F)F)c1", "system_tested": "U2OS", "discrete_label": "0 (no)"}

###

System: U2OS
Test: Multiplex assay against U2OS
Assay type: toxicity, cell-based
Conditions: human, 24 h, 10 µM, compound concentration 10 uM, replicate 1

{"compound": "CC[C@H]1OC(=O)[C@H](C)[C@@H](O[C@H]2C[C@@](C)(OC)[C@@H](O)[C@H](C)O2)[C@H](C)[C@@H](O[C@@H]2O[C@H](C)C[C@H](N(C)C)[C@H]2O)[C@@]2(C)CC(C)=C(O2)[C@H](C)[C@@H](O)[C@]1(C)O", "system_tested": "U2OS", "Population Pyknosed Nuclei (%)": 29}
{"compound": "CCCN1CCC[C@@H]2Cc3n[nH]cc3C[C@H]21.Cl [QUINPIROLE HYDROCHLORIDE]", "system_tested": "U2OS", "Population Pyknosed Nuclei (%)": 6}
{"compound": "CN(C)CCCc1cc(C(=O)Nc2ccc(-c3ccncc3)cc2)ccc1O.Cl.Cl", "system_tested": "U2OS", "Population Pyknosed Nuclei (%)": 13}
{"compound": "N[C@@]1(C(=O)O)CO[C@H]2[C@H](C(=O)O)[C@H]21", "system_tested": "U2OS", "Population Pyknosed Nuclei (%)": 7}
{"compound": "C[C@H](NC(=O)c1c(C(F)F)nn(C)c1Oc1cccc(C(F)(F)F)c1)c1ccc(C(=O)O)cc1", "system_tested": "U2OS", "Population Pyknosed Nuclei (%)": 7}
{"compound": "N#Cc1c(N)nc(SCc2csc(-c3ccc(Cl)cc3)n2)c(C#N)c1-c1ccc(OCCO)cc1", "system_tested": "U2OS", "Population Pyknosed Nuclei (%)": 26}
{"compound": "c1cc(OCCCN2CCCCC2)ccc1CN1CCCCC1", "system_tested": "U2OS", "Population Pyknosed Nuclei (%)": 8}
{"compound": "Cc1ccc(F)cc1C(=O)Nc1ccc(C(=O)N2Cc3cccn3Cc3ccccc32)c(Cl)c1", "system_tested": "U2OS", "Population Pyknosed Nuclei (%)": 18}
{"compound": "Cc1ccc(C(C)(O)c2nc3ccccc3s2)c(C)c1 (stereo not given)", "system_tested": "U2OS", "Population Pyknosed Nuclei (%)": 6}
{"compound": "CCCC(CCC)C(=O)O", "system_tested": "U2OS", "Population Pyknosed Nuclei (%)": 3}
{"compound": "O=S(=O)(c1ccccc1)c1cnc2c(N3CCNCC3)cccc2c1 [INTEPIRDINE]", "system_tested": "U2OS", "Population Pyknosed Nuclei (%)": 16}
{"compound": "Cc1ccccc1C(=O)Nc1ccc(C(=O)N2CCCC(N(C)C)c3ccccc32)cc1.Cl (stereo not given)", "system_tested": "U2OS", "Population Pyknosed Nuclei (%)": 31}
{"compound": "CSc1ccccc1N1CCN(CCCCCC(=O)NC2CCCc3ccccc32)CC1.Cl (stereo not given)", "system_tested": "U2OS", "Population Pyknosed Nuclei (%)": 26}
{"compound": "CN(C)c1ccnc2sc3c(=O)n(N4CCCCCC4)cnc3c12", "system_tested": "U2OS", "Population Pyknosed Nuclei (%)": 15}
{"compound": "C[C@H]1[C@H]2CC[C@H]3[C@@H]4CC=C5C[C@@H](N(C)C)CC[C@]5(C)[C@H]4CC[C@]23CN1C", "system_tested": "U2OS", "Population Pyknosed Nuclei (%)": 7}
{"compound": "CCCn1c(=O)c2[nH]c(C3CCCC3)nc2n(CCC)c1=O", "system_tested": "U2OS", "Population Pyknosed Nuclei (%)": 8}
{"compound": "Oc1c(CN2CCN(c3ccccn3)CC2)cc(Cl)c2cccnc12", "system_tested": "U2OS", "Population Pyknosed Nuclei (%)": 9}
{"compound": "COc1cc(NC(=O)CCN2CCC(OC(=O)Nc3ccccc3-c3ccccc3)CC2)c(Cl)cc1CNC[C@H](O)c1ccc(O)c2[nH]c(=O)ccc12", "system_tested": "U2OS", "Population Pyknosed Nuclei (%)": 22}
{"compound": "CNC[C@H](O)c1ccc(O)c(O)c1 [EPINEPHRINE]", "system_tested": "U2OS", "Population Pyknosed Nuclei (%)": 10}
{"compound": "COc1ccc2c(c1)C(C(=O)N(Cc1ccc(N(C)C)cc1)c1ccc(C(C)C)cc1)CCC2.Cl (stereo not given)", "system_tested": "U2OS", "Population Pyknosed Nuclei (%)": 24}
{"compound": "O=C1COc2nccc(-c3ccccc3F)c2CN1Cc1cc(C(F)(F)F)cc(C(F)(F)F)c1", "system_tested": "U2OS", "Population Pyknosed Nuclei (%)": 19}
{"compound": "CC(C)(C)c1ccc(S(=O)(=O)Nc2ccc(Cl)cc2C(=O)c2cc[n+]([O-])cc2)cc1", "system_tested": "U2OS", "Population Pyknosed Nuclei (%)": 5}
{"compound": "Cl.Clc1ccc2nsnc2c1NC1=NCCN1 [TIZANIDINE HYDROCHLORIDE]", "system_tested": "U2OS", "Population Pyknosed Nuclei (%)": 8}
{"compound": "CN1CCN(c2nc3cc(C(F)(F)F)ccc3n3cccc23)CC1.O=C(O)/C=C\\C(=O)O.O=C(O)/C=C\\C(=O)O", "system_tested": "U2OS", "Population Pyknosed Nuclei (%)": 10}
{"compound": "Cc1ccc(-c2ccc(F)cc2COc2ccc(CCC(=O)O)cc2)cc1", "system_tested": "U2OS", "Population Pyknosed Nuclei (%)": 5}
{"compound": "CC1(COc2ccc3c(c2)ncn3-c2ccc3cccc(N4CCC(N)CC4)c3n2)COC1", "system_tested": "U2OS", "Population Pyknosed Nuclei (%)": 45}
{"compound": "CCOc1c2c(c(OCC)c3ncccc13)CN(c1ccc(CS(=O)(=O)NC(=O)Cc3ccccc3OC)cc1C)C2=O", "system_tested": "U2OS", "Population Pyknosed Nuclei (%)": 10}
{"compound": "CN1CCN2c3ncccc3Cc3ccccc3C2C1 (stereo not given)", "system_tested": "U2OS", "Population Pyknosed Nuclei (%)": 9}
{"compound": "CC(=O)NCCc1c(Cc2ccccc2)[nH]c2ccccc12", "system_tested": "U2OS", "Population Pyknosed Nuclei (%)": 7}
{"compound": "C[C@@H]1C[C@H]2[C@@H]3CCC4=CC(=O)C=C[C@]4(C)[C@@]3(F)[C@@H](O)C[C@]2(C)[C@@]1(O)C(=O)CO", "system_tested": "U2OS", "Population Pyknosed Nuclei (%)": 7}
{"compound": "CCNC1(C(N)=O)CCN(c2ncnc3c2nc(-c2ccccc2Cl)n3-c2ccc(Cl)cc2)CC1", "system_tested": "U2OS", "Population Pyknosed Nuclei (%)": 20}
{"compound": "COc1c(C)cc(NC(=O)c2nn(Cc3ccc(F)cc3)c3c2CN(C(=O)c2ccc[nH]2)C[C@]3(C)C(N)=O)cc1C", "system_tested": "U2OS", "Population Pyknosed Nuclei (%)": 31}
{"compound": "Cc1ccc(/C(=C\\CN2CCCC2)c2ccccn2)cc1", "system_tested": "U2OS", "Population Pyknosed Nuclei (%)": 10}
{"compound": "O=C(O)c1cc2ccccc2c(Cc2c(O)c(C(=O)O)cc3ccccc23)c1O", "system_tested": "U2OS", "Population Pyknosed Nuclei (%)": 5}
{"compound": "O=C(O)Cc1ccccc1Nc1c(Cl)cccc1Cl", "system_tested": "U2OS", "Population Pyknosed Nuclei (%)": 10}
